# test.system: Substance-P receptor (Rattus norvegicus, UniProt P14600)
# Sequence (P14600 whole entry): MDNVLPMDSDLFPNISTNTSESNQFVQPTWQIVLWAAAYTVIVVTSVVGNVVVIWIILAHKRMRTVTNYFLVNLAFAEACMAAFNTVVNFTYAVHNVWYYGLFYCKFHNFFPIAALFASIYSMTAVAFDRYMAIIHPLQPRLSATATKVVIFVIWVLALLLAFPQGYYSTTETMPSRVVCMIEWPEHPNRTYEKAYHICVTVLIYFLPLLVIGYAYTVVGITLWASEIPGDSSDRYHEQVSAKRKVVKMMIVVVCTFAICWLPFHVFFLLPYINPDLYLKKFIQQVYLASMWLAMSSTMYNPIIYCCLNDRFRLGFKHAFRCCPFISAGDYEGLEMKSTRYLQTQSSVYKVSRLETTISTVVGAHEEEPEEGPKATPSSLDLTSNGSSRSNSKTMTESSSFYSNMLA
# method.notes: Tested for inhibition of tachykinin 1 (NK1) receptor in rat brain synaptosomal membranes using [125I]BH-SP as radioligand
Non-standard residues stand in square brackets, D forms with d. Residues, ends and D or L forms follow the SMILES beside them. pGlu = O=C1CC[C@@H](C(=O)O)N1
quantity: IC50 (nM)
Answers are plain numbers, in nM.

CC[C@H](C)[C@H](NC(=O)[C@H](Cc1ccccc1)NC(=O)[C@H](C)NC(=O)[C@H](CC(=O)O)NC(=O)[C@H](CCCCN)NC(=O)[C@H](CO)NC(=O)[C@@H]1CCCN1C(=O)[C@@H]1CCC(=O)N1)C(=O)NCC(=O)N[C@@H](CC(C)C)C(=O)N[C@@H](CCSC)C(N)=O ([pGlu]PSKDAFIGLM-NH2) = 31
CSCC[C@H](NC(=O)[C@H](CC(C)C)NC(=O)CNC(=O)[C@@H](NC(=O)[C@H](Cc1ccccc1)NC(=O)[C@H](Cc1ccccc1)NC(=O)[C@H](CC(=O)O)NC(=O)[C@H](Cc1c[nH]cn1)NC(=O)[C@H](CCSC)NC(=O)[C@@H](N)CC(=O)O)C(C)C)C(N)=O [NEUROKININ B] = 870
CSCC[C@H](NC(=O)[C@H](CC(C)C)NC(=O)CNC(=O)[C@@H](NC(=O)[C@H](Cc1ccccc1)NC(=O)[C@H](CCC(N)=O)NC(=O)[C@H](CC(=O)O)NC(=O)[C@H](CO)NC(=O)[C@H](CCCCN)NC(=O)[C@@H]1CCCN1C(=O)[C@@H](NC(=O)[C@@H](N)CC(=O)O)C(C)C)C(C)C)C(N)=O [KASSININ] = 75

GET /values?readout=IC50&item= CSCC[C@H](NC(=O)[C@H](CC(C)C)NC(=O)CNC(=O)[C@H](Cc1ccc(O)cc1)NC(=O)[C@H](Cc1ccccc1)NC(=O)[C@H](CCCCN)NC(=O)[C@H](CC(N)=O)NC(=O)[C@@H]1CCCN1C(=O)[C@H](CC(=O)O)NC(=O)[C@H](C)NC(=O)[C@@H]1CCC(=O)N1)C(N)=O ([pGlu]ADPNKFYGLM-NH2)
2.3
